# Test system: RXF 393 renal
# PROTOCOL: NCI-60 one-dose screen, 48 h (100 = growth as untreated, 0 = no growth, -100 = all killed)
# CONDITION NOTES: 10 µM unless noted
This is part of a sample that, as a whole, favours compounds with a hit. Of some 83,000 tested, about 20% had one in any assay. Active and inactive are the calls of the source. How the source made its calls: active means growth percent below 10; inactive means the rest.
METRIC NAME: growth

Worked cases, answers included:
COC(=O)c1nc(=S)[nH]c(C(=O)OC)c1C(=O)c1ccccn1 = 43.2% (inactive)
CCN(CC)CC(C)(C)C(=O)/C=C/c1ccc(Cl)c(Cl)c1 = -81.9% (active)
O=C(O)c1ccc2c3c(ncnc13)-c1ccccc1C2=O = 73.5% (inactive)
CN(C)c1ccc(N=Nc2cccc3ccccc23)cc1 = 98.9% (inactive)
CCCCCC(CCCCC)C(=O)O = 135% (inactive)

Task: Item `O=Nc1ccccc1N=O` has what recorded growth?
Result: 101% (inactive)

Task: // query growth value for entry `CCCCCCCCCCCCCCCCN(CC)CC`
Result: -86.2% (active)

Task: Suppose we examine the compound `Cc1cc2nc(CS)[nH]c2cc1C` ; what growth value has been reported?
Result: 76.9% (inactive)

* * *

# Test system: HCT-116 colon
# PROTOCOL: NCI-60 one-dose screen, 48 h
# CONDITION NOTES: 10 µM unless noted
This is part of a sample that, as a whole, favours compounds with a hit. Of some 83,000 tested, about 20% had one in any assay. Activity calls are given as the source filed them. Rule for the calls: active = growth percent below 10; inactive = the rest.
The reply should name one outcome from active, inactive

See these solved cases before continuing.
O=C(Nc1cccc(Br)c1)Oc1ccc(Cl)c2cccnc12 = active
N#CSCC(=O)c1ccc(Cl)cc1 = active
CN(C)c1ccc(N=Nc2cccc3ccccc23)cc1 = inactive
Cc1ccc2nc(-[n+]3cc4ccccc4cc3C)ccc2c1 = inactive
COC(=O)[C@@]12OC[C@]34[C@H]([C@@H](O)[C@@H]1O)[C@@]1(C)[C@H](O)C(=O)C=C(C)[C@@H]1C[C@H]3OC(=O)C(OC(C)=O)[C@@H]24 (stereo not given in full) = active

Task: # lookup: test call for `CNc1ccc(N)cc1`
Result: inactive

* * *

# System: UACC-62 melanoma
# PROTOCOL: NCI-60 one-dose screen, 48 h
# CONDITION NOTES: 10 µM unless noted
# Protocol: Growth inhibition of the UACC-62 human tumor cell line is measured as a screen for anti-cancer activity. Cells are grown in 96 well plates and exposed to the test compound for 48 hours. Compounds are tested at a single concentration, which is 10^-5 M for most compounds. The reported endpoint is percent growth (GI% or GIPRCNT), where numbers from 0 - 100% represent growth inhibition, and numbers from -100% - 0 represent cell death. For example, a value of 40 represents 60% growth inhibition. […]
Compounds without any hit were thinned out: in the full panel of roughly 83,000, 20% have a hit. Activity calls are given as the source filed them. Rule for the calls: active = growth percent below 10; inactive = the rest.
Thanks in advance; please answer with one of these: true (1) (active), false (0) (inactive)

CC1OC2CC(=O)OC2C2=C1C(=O)c1c(O)cccc1C2=O (stereo unspecified) = true (1)
O=Nc1ccccc1N=O = false (0)
CNC(=O)N/N=C/c1ccc([N+](=O)[O-])o1 = false (0)
Cc1cc(C(C)(CC(C)C)c2ccc(O)c(C)c2)ccc1O = false (0)
CCCCCCC(C)c1ccccc1O (stereo unspecified) (tested in a mixture with another compound) = false (0)

// next entry
Task: # outcome recorded in this test, key = `N#CSCC(=O)c1ccc(Cl)cc1`
Result: false (0)

* * *

# System: U251 CNS
# PROTOCOL: NCI-60 one-dose screen, 48 h (100 = growth as untreated, 0 = no growth, -100 = all killed)
# CONDITION NOTES: 10 µM unless noted
This is part of a sample that, as a whole, favours compounds with a hit. Of some 83,000 tested, about 20% had one in any assay.
METRIC NAME: growth (%)
Give a bare numeral; the unit % is implied.

Record excerpt, results attached:
O=C1C=CC(=O)N1C1c2ccccc2-c2ccccc21 = 92.8
CCOC(=O)c1c(C)[nH]c(CO)c1C = 99
OC(CNc1ccnc2cc(Cl)ccc12)CNc1ccnc2cc(Cl)ccc12 = 3.22
CN(Cc1cnc2nc(N)nc(N)c2n1)c1ccc(C(=O)NC(CCC(=O)O)C(=O)O)cc1 (stereo unspecified) = 35.7
CC(C)(C)CC(C)(C)c1ccc(OCCSC(=N)N)cc1 = 12.3

Task: Any idea what growth was measured for `O=C(O)c1ccc2c3c(ncnc13)-c1ccccc1C2=O` ?
Result: 60.6

Task: Look at this molecule and give its reported growth. `N#CSCc1ccc(CSC#N)c(Cl)c1`
Result: 85.8

Task: Name the reported growth value associated with the molecule `Oc1c(Cl)cc(Cl)c2cccnc12`
Result: 35.5

Task: Requested read-out: growth. Entry: `CN(C)C(=O)SC1=C(c2c(Cl)cccc2Cl)C(=O)c2ccccc21`
Result: 90

Task: Could you tell me which growth is on file for `O=[N+]([O-])c1ccc(N=Nc2ccc(O)cc2O)cc1` ?
Result: 38.4

Task: I have this molecule here, `NC(=O)/C=C/C(=O)c1c(Cl)cccc1Cl` , and I need its recorded growth.
Result: -59.1

Task: Return reported growth; argument: `CN(C)c1ccc(/C=N/N=C(\C#N)[S][Sn]([Cl])([c]2ccccc2)[c]2ccccc2)cc1`
Result: 57.3

Task: Quick check: growth of `S=C(N/N=C/c1ccccn1)Nc1ccccn1` ?
Result: 10.1

Task: I have this molecule here, `CNc1ccc(N)cc1` , and I need its recorded growth.
Result: 117

* * *

# Test system: MDA-MB-435 melanoma
# PROTOCOL: NCI-60 one-dose screen, 48 h
# CONDITION NOTES: 10 µM unless noted
About 83,000 compounds went through this panel and 20% of them were active in at least one assay; those are over-represented in the sample as a whole. Activity calls are given as the source filed them. The calls were made as follows: active = growth percent below 10; inactive = the rest.
Valid outcomes are listed here; reply with one: active, inactive

O=C1NC(=O)/C(=C/C=C/c2ccccc2)S1 = inactive

As a next step, examine the molecule that follows.
Task: Which outcome was assigned to CCC(CCCN(CC)CCc1ccccc1)OC(=O)c1cc(OC)c(OC)c(OC)c1 (configuration not stated) in this test?
Result: inactive

* * *

# Tested on: SK-OV-3 ovarian
# PROTOCOL: NCI-60 one-dose screen, 48 h (100 = growth as untreated, 0 = no growth, -100 = all killed)
# CONDITION NOTES: 10 µM unless noted
The panel holds about 83,000 compounds, 20% with a hit somewhere; the sample as a whole holds those more often.
# growth values compiled below
Record the value in %, omitting the unit from your answer.

C1=C(c2ccccc2)C(c2ccc(OCCN3CCCCC3)cc2)Oc2ccccc21 (configuration not stated) = 74

Task: Field request: growth | item: `O=C1c2ccccc2C(=O)c2sc(Nc3cccc(Cl)c3)nc21`
Result: 86.9

Task: Given the compound `Cc1ccc2nc(-[n+]3cc4ccccc4cc3C)ccc2c1` , what is its reported growth?
Result: 38.3

* * *

List of growth values.
# Tested on: BT-549 breast
# PROTOCOL: NCI-60 one-dose screen, 48 h (100 = growth as untreated, 0 = no growth, -100 = all killed)
# CONDITION NOTES: 10 µM unless noted
The panel holds about 83,000 compounds, 20% with a hit somewhere; the sample as a whole holds those more often. The source made the active and inactive calls. How the source made its calls: active means growth percent below 10; inactive means the rest.

Task: Look up growth with BT-549 breast for this compound: `Nc1nc(N)c2c(ccc3c2ccn3Cc2cccc([N+](=O)[O-])c2)n1`
Result: -91.4% (active)

Task: Form entry - test system: BT-549 breast; read-out: growth; compound: `CC(=O)C(=Cc1ccc(C=C(C(C)=O)C(C)=O)cc1)C(C)=O`
Result: 12.6% (inactive)

Task: Please state recorded growth (tested on BT-549 breast) of `CCCCCCCCCCCCCCCCN(CC)CC`
Result: -36.8% (active)

* * *

# Tested on: SK-MEL-28 melanoma
# PROTOCOL: NCI-60 one-dose screen, 48 h (100 = growth as untreated, 0 = no growth, -100 = all killed)
# CONDITION NOTES: 10 µM unless noted
About 83,000 compounds went through this panel and 20% of them were active in at least one assay; those are over-represented in the sample as a whole.
Recorded growth values for a group of compounds are listed next.
Response body: numeric value in %, unit text excluded.

CC1OC(OC2C(OC3CCC4(C)C(CCC5(C)C4CC=C4C6CC(C)(C)CCC6(CO)C(O)CC45C)C3(C)C)OC(C(=O)O)C(OC3OC(COC4OC(CO)C(O)C(O)C4O)C(O)C(O)C3O)C2O)C(O)C(O)C1O (stereo not drawn) = -79
CCCCCCCCCCCCCCCC[N+](C)(CCO)Cc1cnc[nH]1 (stereo not drawn) = -43.2

In the following, a different compound is considered.
Task: Consider the compound shown here: `O=C(O)c1ccc2c3c(ncnc13)-c1ccccc1C2=O` What is its recorded growth?
Result: 29.8
